- system_tested: human Matrix Metalloproteinase-2 (MMP2), MMP2 (gene 4313)
- experiment_summary: NVS_ENZ_hMMP2: NovaScreen (NVS) Enzymatic Assay for human Matrix Metalloproteinase-2 (MMP2) (AID 2283184)
Records with an inconclusive call do not appear. The source made the active and inactive calls. Rule for the calls: active = hit-call score of the fitted dose curve at least 0.9, where 1 is the maximum; inconclusive = response in the unintended direction; inactive = score below 0.9.
Thanks in advance; please answer with one of these: 1 (active), 0 (inactive)

These recorded examples may help you get a feel for the data.
OC[C@H]1O[C@@](CO)(O[C@H]2O[C@H](CO)[C@@H](O)[C@H](O)[C@H]2O)[C@@H](O)[C@@H]1O
0
O=S(=O)(O)c1ccc(N=Nc2c(O)ccc3cc(S(=O)(=O)O)ccc23)cc1
1
CC[C@H](C)C(=O)O[C@H]1C[C@H](O)C=C2C=C[C@H](C)[C@H](CC[C@@H](O)C[C@@H](O)CC(=O)O)[C@H]21
0

# input for lookup
# fetch the recorded call for `COCc1nnc(-c2ccc[n+]([O-])c2)n1-c1c(Cl)c(Cl)cc2[nH]c(=O)c(=O)[nH]c12` here
1

====

- Read-out: Forkhead box O1 (FOXO1), FOXO1 (gene 2308)
- experiment_summary: LTEA_HepaRG_FOXO1: Life Technologies and Expression Analysis (LTEA) Assay for Forkhead box O1 (FOXO1) using HepaRG (AID 2283456)
- condition_label: mRNA level, 48 h; actives raise or lower the signal
The source made the active and inactive calls. How the source made its calls: active means hit-call score of the fitted dose curve at least 0.9, where 1 is the maximum; inactive means score below 0.9.
measured_attribute: outcome

Some solved cases for reference:
NC(=O)NN=Cc1ccc([N+](=O)[O-])o1
inactive
OC[C@H]1O[C@@](CO)(O[C@H]2O[C@H](CO)[C@@H](O)[C@H](O)[C@H]2O)[C@@H](O)[C@@H]1O
inactive
OC(Cn1cncn1)(Cn1cncn1)c1ccc(F)cc1F
inactive
C[C@]12C=CC(=O)C=C1CC[C@H]1[C@@H]3C[C@@H](O)[C@](O)(C(=O)CO)[C@@]3(C)C[C@H](O)[C@@]12F
inactive
CC[C@H](C)C(=O)O[C@H]1C[C@H](O)C=C2C=C[C@H](C)[C@H](CC[C@@H](O)C[C@@H](O)CC(=O)O)[C@H]21
inactive

Query (compound): `CC(=O)c1ccccc1` ; field requested: outcome
inactive

Here is the next compound: `NC(=O)N1c2ccccc2C=Cc2ccccc21`
inactive

Here is the next compound: `CCc1ccc(O)c(C(C)(C)C)c1`
inactive

Here is the next compound: `COCc1nnc(-c2ccc[n+]([O-])c2)n1-c1c(Cl)c(Cl)cc2[nH]c(=O)c(=O)[nH]c12`
inactive

Here is the next compound: `c1ccc(C(O[C@@H]2CCCN(CCc3ccc4c(c3)OCO4)C2)c2ccccc2)cc1`
inactive

Here is the next compound: `OCCOCCOCCO`
inactive

Here is the next compound: `CCOc1ccc2[nH]cc(C(=O)NCc3ccccc3)c(=O)c2n1`
inactive

====

- Read-out: HGF (gene 3082)
- experiment_summary: LTEA_HepaRG_HGF: Life Technologies and Expression Analysis (LTEA) Assay for Hepatocyte Growth Facto (HGF) using HepaRG (AID 2283505)
- condition_label: mRNA level, 48 h; actives raise or lower the signal
- Experimental: LTEA_HepaRG is a cell based, multiplexed-readout assay that uses HepaRG, a human liver cell line, with measurements taken at 48 hours after chemical dosing on a 96-well plate.LTEA_HepaRG_HGF is one of 102 assay component(s) measured in the LTEA HepaRG cell culture assay. It is a marker of Cell proliferation, survival, death.Data from the assay component LTEA_HepaRG_HGF was analyzed into 1 endpoint. […]
The source made the active and inactive calls. How the source made its calls: active means hit-call score of the fitted dose curve at least 0.9, where 1 is the maximum; inactive means score below 0.9.
Thanks in advance; please answer with one of these: active, inactive

These recorded examples may help you get a feel for the data.
CC(C)C(=O)Nc1ccc([N+](=O)[O-])c(C(F)(F)F)c1
active
CCCCCCCCCCCCCCO
inactive
CCc1cccc(CC)c1N
inactive
CC(C)CC(C)O (stereo unspecified)
inactive

# fetch the recorded call for `OCCOCCOCCO` here
inactive

Here is the next compound: `CCCCCCCCCCCCCCCCOS(=O)(=O)O`
inactive

Here is the next compound: `CCCCCCCCN(C)C`
inactive

Here is the next compound: `O=C(NO)C1(NS(=O)(=O)c2ccc(Oc3ccc(F)cc3)cc2)CCOCC1`
inactive

Here is the next compound: `NC(N)=O`
inactive
